All values here come from patent US20140249135A1.

Test target: KDR kinase (Homo sapiens, UniProt P35968)
Sequence (P35968 20-1356): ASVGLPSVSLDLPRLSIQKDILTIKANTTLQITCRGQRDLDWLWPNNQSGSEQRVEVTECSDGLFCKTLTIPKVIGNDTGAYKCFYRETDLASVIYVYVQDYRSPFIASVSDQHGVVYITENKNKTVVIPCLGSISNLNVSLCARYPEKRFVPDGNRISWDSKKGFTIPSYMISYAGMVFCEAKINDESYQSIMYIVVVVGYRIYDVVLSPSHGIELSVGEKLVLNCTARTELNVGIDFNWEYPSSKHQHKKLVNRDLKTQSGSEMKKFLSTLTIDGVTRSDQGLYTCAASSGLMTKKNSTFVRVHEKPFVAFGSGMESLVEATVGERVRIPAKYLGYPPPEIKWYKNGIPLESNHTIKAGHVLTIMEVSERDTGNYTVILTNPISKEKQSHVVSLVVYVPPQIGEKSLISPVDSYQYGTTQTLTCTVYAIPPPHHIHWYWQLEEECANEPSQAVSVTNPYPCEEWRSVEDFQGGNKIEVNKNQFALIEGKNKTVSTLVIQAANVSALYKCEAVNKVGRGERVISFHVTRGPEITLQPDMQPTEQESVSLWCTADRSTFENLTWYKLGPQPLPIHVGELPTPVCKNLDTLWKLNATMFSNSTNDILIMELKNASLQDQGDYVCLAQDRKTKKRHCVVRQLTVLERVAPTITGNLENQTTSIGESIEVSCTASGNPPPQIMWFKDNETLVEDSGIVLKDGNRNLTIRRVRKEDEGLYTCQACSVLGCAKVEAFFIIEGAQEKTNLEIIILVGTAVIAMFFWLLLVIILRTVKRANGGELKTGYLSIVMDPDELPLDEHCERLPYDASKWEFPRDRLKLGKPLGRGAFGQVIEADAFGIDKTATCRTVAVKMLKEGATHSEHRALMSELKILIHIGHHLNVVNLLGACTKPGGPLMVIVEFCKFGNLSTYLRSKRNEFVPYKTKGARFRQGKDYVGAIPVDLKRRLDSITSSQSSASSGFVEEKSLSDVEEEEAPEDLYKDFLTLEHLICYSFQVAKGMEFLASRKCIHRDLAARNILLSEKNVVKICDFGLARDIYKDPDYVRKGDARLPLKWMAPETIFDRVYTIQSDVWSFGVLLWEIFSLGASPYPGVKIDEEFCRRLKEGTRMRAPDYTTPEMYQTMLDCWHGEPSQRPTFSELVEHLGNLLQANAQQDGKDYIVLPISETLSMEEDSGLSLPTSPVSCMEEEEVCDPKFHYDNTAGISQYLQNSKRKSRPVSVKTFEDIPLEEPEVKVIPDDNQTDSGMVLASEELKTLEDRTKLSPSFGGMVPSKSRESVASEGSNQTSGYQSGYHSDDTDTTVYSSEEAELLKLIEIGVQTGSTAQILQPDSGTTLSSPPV
Test method notes: KDR AlphaScreen assay
Condition notes: KDR IC50 (μM)
// reported IC50 for each item listed

Before answering, review these 5 worked examples.
Compound	Reported endpoint	Reported
Nc1nccnc1C(=O)Nc1cc(C(=O)C2CC2)ccc1N1CCCC(N)C1 (stereo not drawn)	IC50	> 25 µM
Nc1ncc(-c2ccccc2)nc1C(=O)Nc1ccccc1N1CCNCC1	IC50	1 to 10 µM
Nc1ncc(-c2ccccc2)nc1C(=O)Nc1ccccc1N1CCCC(N)C1 (stereo not drawn)	IC50	< 1 µM
COc1ccc(N2CCCC(N)C2)c(NC(=O)c2nccnc2N)c1 (stereo not drawn)	IC50	> 25 µM
Nc1nccnc1C(=O)Nc1cnccc1N1CCC2(CC1)OCCO2	IC50	> 25 µM

Lab note: next compound to report on.
QUERY: I have this compound here, Nc1ccc(-c2cccnc2F)nc1C(=O)Nc1ccncc1N1CCCC(N)C1 (stereo not drawn) , and I need its recorded IC50.
RESULT: 1 to 10 µM
